assay: yeast display, Sf9 membrane polyspecificity reagent, FACS + sequencing; frameworks hold sequencing errors
parameter: polyreactivity (PSR sort gate)

Please review the following examples before continuing.
chain sequence	polyreactivity (PSR sort gate)
QVQLVESGGGLVQAGGSLRLSCAASGRIIWSNAMGWYRQAPGKERELVAGITGSGGNTYYADSVKGRFTISRDNAKNTVYLHMNSLKPEDTAVYYCNARSGSRPSSSYRYDYWGQGTQVTVSS	low polyreactivity
QVQLVESGGGLVQAGGSLRLSCADSGRNYIGNAMGWYIHAPGKEPELVAAISSSGGNTYYADSVKGRFTISRDNAKNTVYLQMTSLNPEDNAVYYCAVEVRTLVTYGRSEYYWGQGTKVTVSS	high polyreactivity
QVQLVESGGGLVQAGGSLRLSCAASGSIFDRNAMGWYRQAPGKERELVSAINSNGGITYYADSVKGRFTISRDNAKNTVYLQMNSLKPEDTAVYYCAAVIRVVYREDHCGQGTQVTVSS	low polyreactivity
QDQLVESGGGLVQAGGSLSLSCAASGSIFETYDMGWYRQAPGKERELVAAISLSGGSTYYADSVKGRFTISRDNAKNTVYLQMYSLKPEDTAVYYCASDTYYVSYGYYYWGLGTQVTVSS	low polyreactivity
QVQLVESGGGLVQAGGSLRLSCAASGFTFYPYALGRYRQAPRKEREFVAAISNGDSTHYADSVKGRFTISRDNAKNTVYLQMNSLKPEDTAVYYCNAYTRYPFYFVTSKYDYWGQGTQVTVSS	low polyreactivity

Hey, quick one: what's polyreactivity (PSR sort gate) for each of these?
1. QVQLEESGGGLVQAGGSLRLSCAASGFTFSHNAMGWYIQAPGKERELVAAITRDSGSTYYADSVKGRFTISRDNAKNTVYLQMNSLTPEDTAVYYCAADIASGYYWYDYWGQGTQVTVSS
2. QVQLVESGGGLVQAGGSLRLSCAASGSIFIWYAMGWYRQAPGKERELVATITSSGSTNYADSVKGRFTISRDNAKNTVYLQMNSLKPEDTAVYYCAKRGPLRHYSWGQGTQVTVSS
3. QVQLVESGGGLVQAGGSLRLSCADSGSTFRFNAMGWYRQAPGKERDLVAAISQSGGSTRYADSVKGRFTISRDNAKNTVYLQMNSLKPEDTAVYYCAARRRWLPGYAWQVAYDSWGQGTQVTVSS
4. QVQLVESGGGLVQAGGSLRLSCAAYGSSFNHYSMGWYRQAPGKERELVAAISWNGGSTYYADSVKGRFTISRDNAKNTVYLQMNSLKPEDTAVYYCNALVTTTPRYDYWGQGTQVTVSS

low polyreactivity
low polyreactivity
high polyreactivity
high polyreactivity

Hey, quick one: what's polyreactivity (PSR sort gate) for each of these?
1. QVQLVESGGGLVQAGGSLRISCAASGSIFHFNAMGWYRQAPGKERELVARISIGGGSTYYADSVKGRFTISRDNAKNTVYFQMKSLKPEDTAVYYCGVDGSPRYKYDYWGQGTQVNVSS
2. QVQLVESGGGLVQAGGSLRLSCAASGIIFARNGMGWYRPAPGKERELVAAISSGGRKYYADSVKGRFTISRDNAKNTVYLQMNSLKPEDTAVYYCNALGWYLRGDYWGQGTQVTVSS

["high polyreactivity", "high polyreactivity"]

----------
assay: yeast display, Sf9 membrane polyspecificity reagent, FACS + sequencing; frameworks hold sequencing errors
parameter: polyreactivity (PSR sort gate)

Please review the following examples before continuing.
chain sequence	parameter	reported
QVQLQESGGGLVQAGGSLRLSCAASCTISQEDWMGWYRQAPCKEREFVASIGLGSNTNYADSLKGRFTISRDNAKNTVYLKMNSLKPEYTAVYYCASEENLAYYFKYYYWGQGTQVTVSS	polyreactivity (PSR sort gate)	low polyreactivity
QVQLVESGGGLVQAGGSLRLSCAASGSIFGAYTMRWYRQAPGKERELVAAITGGGITNYADSVKGRFTISRDNAKNTVYLQMNSLKPEDTAVYYCNAGYPPQTVVVGYDYWGQGTQVTVSS	polyreactivity (PSR sort gate)	low polyreactivity
QVQLVESGGGVVQAGGSLRLSCAASGRTFGWNTMGWYRQAPGKERELVAAISYSTGRTYYADSVKGRFTISRDNAKYTVYLQMNSLKPEDTAVYYCAATRPYRYNYWGQGTQVTVSS	polyreactivity (PSR sort gate)	high polyreactivity
QVQLVESGGGLVQAGGSLRLSCAASGRTIRYYTMGWYRQAPGKETELVATITGTGSTNYADSVKGRFTISRDNAKNTVYFQMNSLKPEDTEVYYCNARWDFVGTWRIYNYWGQGTQVTVSS	polyreactivity (PSR sort gate)	high polyreactivity

What value of polyreactivity (PSR sort gate) has been recorded for this entry: QVQLVESGGGLVQAGGSLRLSCAASGITFDYYGMGWYIQAPGKERELVASITSGGSTNYADSVKGRFTISRDNPKNTVYLQMNSLKPEDTAVYYCNAEFWEVSPDPRDYDYWGQGTQVTVSS
low polyreactivity
